The compounds below each have a reported pIC50 tested on Cyclin-dependent kinase 5 (Homo sapiens, UniProt Q00535); the values come from various publications.
pIC50: −log10 of the molar value.
Outcome label depends on pIC50 relative to 7: at/above gives T, below gives F.

compound	assigned_category
COc1ccc(-c2c[nH]c3c2-n2cccc2/C3=N/O)cc1O	F
O=C(Nc1ccc2cnccc2c1)Nc1ncc(C2CCC2)s1	T
COc1ccc2[nH]c(-c3cccc(F)c3)c(-c3ccncc3)c2n1	F
O=C1c2[nH]cc(-c3ccc(Cl)cc3)c2-n2cccc21	F
Nc1ccc2c(c1)/C(=C1/Nc3ccccc3C1=O)C(=O)N2	F
CC(=O)c1cnc(NC(=O)Cc2ccccc2)s1	F
O=C(Cn1ccc2ccccc21)Nc1ncc(C2CCC2)s1	T
COc1cc2c(Oc3ccc(-c4cnc(Cc5ccccc5)n(C)c4=O)cc3F)ccnc2cc1OCCCN1CCOCC1	F
O=C(Cc1ccccc1)Nc1ncc(C2=CCCC2)s1	F
CCOC(=O)c1cccc(Nc2cc3nc(SC4CCNCC4)ccc3cn2)c1	T
O=C1Nc2ccc([N+](=O)[O-])cc2/C1=C1/Nc2ccc(Br)cc2/C1=N/O	T
CC1(C)CC2(C)Nc3cc(-c4ccc5c(c4)NC4(C)CC(C)(C)NC(=S)N54)ccc3N2C(=S)N1 (configuration not stated)	F
COC[C@@H](CC(C)C)NC1=N/C(=C\c2ccc3ncsc3c2)C(=O)N1C1CC1	F
O=C(Cc1c[nH]c2ccccc12)Nc1ncc(C2CCC2)s1	T
COc1ccc(-c2c[nH]c3c2-n2cccc2/C3=N/O)cc1OCc1ccccc1	F
CC(C)c1n[nH]c2c(NCc3ccc(-c4ccccn4)cc3)nc(NCC(O)CO)nc12 (configuration not stated)	T
Cc1ccc(-c2coc3[nH]c(=O)c4cccn4c23)cc1	F
CC(C)C(=O)Nc1ncc(C(C)C)s1	F
COC[C@@H](CC(C)C)NC1=N/C(=C\c2ccc3ncsc3c2)C(=O)N1C1CCC1	F
CC1CN(c2ccncc2NC(=O)c2ccnn3cc(-c4ccccc4)nc23)CCO1 (racemic)	F
O=C(Nc1ncc(C2CCC2)s1)Nc1cccc2ccncc12	T
CCn1cnc2ccc3nc(C(=N)NCc4ccccc4)sc3c2c1=O	F
COc1ccc(-c2coc3c2-n2cccc2C3=O)cc1OC	F
COc1cc(/C=C2\S/C(=N/c3ccc(C)c(C)c3)NC2=O)ccc1OCc1ccc2ccccc2c1	F
COc1ccc2c(Oc3ccc(NC(=O)c4c(C)n(CC(C)(C)O)n(-c5ccccc5)c4=O)nc3)ccnc2c1	F
COC[C@@H](CC(C)C)NC1=N/C(=C\c2ccc3ncsc3n2)C(=O)N1	F
COC(=N)c1nc2ccc3ncnc(Nc4ccc5c(c4)OCO5)c3c2s1	F
COc1ccc2[nH]c(-c3cc(O)cc(O)c3)c(-c3ccncc3)c2n1	F
S=C(Nc1ccc(Cl)cc1)N1CCN(c2nnc(Cc3ccccc3)c3ccccc23)CC1	F
Nc1ccc2c(c1)NC(=O)/C2=C1\Nc2ccccc2\C1=N/O	F
COc1ccc(CC(=O)Nc2cc(C3CCC3)[nH]n2)cc1	T
CC(C)C[C@H](CO)NC1=N/C(=C\c2ccc3ncsc3c2)C(=O)N1	F
O=C1C(c2c(O)[nH]c3ccc([N+](=O)[O-])cc23)=Nc2ccccc21	F
O=C(Nc1cc(C2CCC2)c[nH]1)Nc1cccc2ccncc12	T
O=C(Nc1ncc(C2CCC2)s1)Nc1cccc2ncccc12	T
COc1ccc(NC(=S)NC(=O)c2cn(-c3ccccc3)nc2-c2ccc(OC)cc2)cc1	F
COc1ccc(NC(=S)N2CCN(c3nnc(Cc4ccccc4)c4ccccc34)CC2)cc1	F
COc1ccc(-c2[nH]nc3c2C(=O)c2c(NC(=O)NNC(=O)c4ccc(O)cc4)cccc2-3)cc1	T
O=C1Nc2ccc([N+](=O)[O-])cc2/C1=C1/Nc2ccc(Br)cc2C1=O	F
